Data provenance is patent US7906655B2.

Test system: HCV 1b genotype
TEST_METHOD_NOTES: HCV Replicon assay (HCV-neo replicon cells, wild-type)
Type: cell-based
ASSAY_CONTEXT: Hepatitis C virus, HCV 1b genotype replicon; numeric values
Could you please report measured pEC50 for the items listed next?
Reminder that pEC50 is minus the log10 of a molar concentration.

INPUT: For COc1ccc2ccc(C(=O)N3CCC[C@H]3c3nc4cc(C#Cc5ccc6[nH]c([C@@H]7CCCN7C(=O)c7ccc8ccc(OC)cc8n7)nc6c5)ccc4[nH]3)nc2c1 , write its pEC50.
OUTPUT: 7.70

INPUT: Report measured pEC50; entry is COC(=O)N[C@H](C(=O)N1CCC[C@H]1c1nc2cc(-c3cnc(-c4cccc5[nH]c([C@@H]6CCCN6C(=O)[C@@H](NC(=O)OC)C(C)C)nc45)o3)ccc2[nH]1)C(C)C
OUTPUT: 11.15

INPUT: Read off the recorded pEC50 for COC(=O)N[C@H](C(=O)N1[C@@H]2C[C@@H]2C[C@H]1c1nc2ccc(-c3ccc(-c4ccc5nc([C@@H]6C[C@H]7C[C@H]7N6C(=O)[C@@H](NC(=O)OC)C(C)C)[nH]c5c4)cc3)cc2[nH]1)C(C)C
OUTPUT: 11.22

INPUT: Query pEC50 for O=C(c1ccncc1)N1CCN(C(=O)OCc2ccccc2)C(c2nc3cc(CCc4ccc5nc(C6CN(C(=O)c7ccncc7)CCN6C(=O)OCc6ccccc6)[nH]c5c4)ccc3[nH]2)C1 (centres unmarked)
OUTPUT: 5.07

INPUT: Tell me its pEC50 given COC(=O)N[C@@H](C(=O)N[C@@H](C)c1nc2cc(C#Cc3ccc4[nH]c([C@H](C)NC(=O)[C@H](NC(=O)OC)c5ccccc5)nc4c3)ccc2[nH]1)c1ccccc1 as the entry.
OUTPUT: 10.48

---

Test system: HCV 1b genotype
TEST_METHOD_NOTES: HCV Replicon assay (HCV-neo replicon cells, wild-type)
Assay type: cell-based
ASSAY_CONTEXT: Hepatitis C virus, HCV 1b genotype replicon; numeric values
QUANTITY_MEASURED: log10 of EC50 (log10 of the value in nM)
log10 EC50, nM

INPUT: Indicate its recorded log10 of EC50; the compound in question is O=C(C1CC1)N1CCC[C@H]1c1nc2ccc(CCc3ccc4nc([C@@H]5CCCN5C(=O)C5CC5)[nH]c4c3)cc2[nH]1
OUTPUT: 2.66

INPUT: Read the entry CC(C)(C)OC(=O)N1CCN(C(=O)OCc2ccccc2)C(c2nc3cc(CCc4ccc5nc(C6CN(C(=O)OC(C)(C)C)CCN6C(=O)OCc6ccccc6)[nH]c5c4)ccc3[nH]2)C1 (centres unmarked) and write its reported log10 of EC50.
OUTPUT: 3.46

INPUT: Please supply the value of reported log10 of EC50 for the item CC(C)(C)OC[C@H](NC(=O)OCc1ccccc1)c1nc2cc(CCc3ccc4nc([C@H](COC(C)(C)C)NC(=O)OCc5ccccc5)[nH]c4c3)ccc2[nH]1
OUTPUT: 1.30

INPUT: Read off the recorded log10 of EC50 for CCCO[C@@H]1C[C@@H](c2nc3cc(CCc4ccc5nc([C@@H]6C[C@@H](OCCC)CN6C(=O)OCc6ccccc6)[nH]c5c4)ccc3[nH]2)N(C(=O)OCc2ccccc2)C1
OUTPUT: 2.68

INPUT: Report measured log10 of EC50; entry is O=C(c1cccs1)N1CCC[C@H]1c1nc2cc(C#Cc3ccc4[nH]c([C@@H]5CCCN5C(=O)c5cccs5)nc4c3)ccc2[nH]1
OUTPUT: 1.00

INPUT: Could you please provide reported log10 of EC50 for C[C@H](NC(=O)[C@@H](c1ccccc1)N(C)C)c1nc2c(-c3ncc(-c4ccc5[nH]c([C@@H]6CCCN6C(=O)[C@@H](c6ccccc6)N(C)C)nc5c4)o3)cccc2[nH]1 ? Thanks!
OUTPUT: -1.68

INPUT: For the compound CCO[C@@H]1C[C@@H](c2nc3cc(C#Cc4ccc5nc([C@@H]6C[C@@H](OCC)CN6C(=O)OCc6ccccc6)[nH]c5c4)ccc3[nH]2)N(C(=O)OCc2ccccc2)C1 , report log10 of EC50.
OUTPUT: 1.30

INPUT: Let me know recorded log10 of EC50 for CC(C)CN[C@H]1C[C@@H](c2nc3cc(C#Cc4ccc5[nH]c([C@@H]6C[C@H](NCC(C)C)CN6C(=O)[C@H]6CCCO6)nc5c4)ccc3[nH]2)N(C(=O)[C@H]2CCCO2)C1 , thanks.
OUTPUT: 2.79

INPUT: Determine its reported log10 of EC50: COC(=O)N[C@@H](C(=O)N1CCC[C@H]1c1nc2c(-c3ncc(-c4ccc5[nH]c([C@@H]6CCCN6C(=O)[C@@H](c6ccccc6)N6CCN(C)CC6)nc5c4)o3)cccc2[nH]1)c1ccccc1
OUTPUT: -1.24

INPUT: Please supply the value of reported log10 of EC50 for the item O=C([C@H]1CCCO1)N1CCC[C@H]1c1nc2cc(C#Cc3ccc4[nH]c([C@@H]5CCCN5C(=O)[C@H]5CCCO5)nc4c3)ccc2[nH]1
OUTPUT: 1.00
